# tested.on: HLA-A3001 (Homo sapiens, UniProt P04439, D140H/D185E/E176W/F33S/G80R/H175R/K168Q/R138E/R41S)
# Construct: expressed in transfected cells; host or cells: HMy2.CIR
# test.method.notes: Peptide competitive binding assay, transfected HMy2.CIR cells, reference ASRELK(FITC)VSY
# condition.parameters: HLA-A3001 HMy2.CIR cells; competitor peptide 5μM; 24 hours; flow cytometry
Residues, ends and D or L forms follow the SMILES beside them.
We begin with a simple list: items and their reported inhibition at 5 µM.
experimental.endpoint: inhibition at 5 µM (%)

>  <compound>
CC[C@H](C)[C@H](NC(=O)[C@H](CC(N)=O)NC(=O)[C@H](C)NC(=O)CNC(=O)[C@H](CO)NC(=O)[C@H](CCCNC(=N)N)NC(=O)[C@H](CO)NC(=O)[C@@H](N)CCCNC(=N)N)C(=O)N[C@@H](CC(C)C)C(=O)O [Epitope P90] (H-RSRSGANIL-OH; N-terminus and C-terminus assumed)

>  <experimental.endpoint>
inhibition at 5 µM

>  <quantity.unit>
%

>  <measured.result>
68

$$$$
>  <compound>
CC[C@H](C)[C@H](NC(=O)[C@H](CC(C)C)NC(=O)[C@H](CCCCN)NC(=O)[C@H](C)NC(=O)CNC(=O)[C@H](CO)NC(=O)[C@H](CCCNC(=N)N)NC(=O)[C@H](CO)NC(=O)[C@@H](N)CCCNC(=N)N)C(=O)O [Epitope P89] (H-RSRSGAKLI-OH; N-terminus and C-terminus assumed)

>  <experimental.endpoint>
inhibition at 5 µM

>  <quantity.unit>
%

>  <measured.result>
62.2

$$$$
>  <compound>
CC(C)C[C@H](NC(=O)[C@@H](NC(=O)[C@@H](N)CO)[C@@H](C)O)C(=O)N1CCC[C@H]1C(=O)N[C@@H](CCC(=O)O)C(=O)N[C@H](C(=O)N[C@H](C(=O)N[C@H](C(=O)N[C@H](C(=O)N[C@@H](CCCNC(=N)N)C(=O)O)C(C)C)C(C)C)[C@@H](C)O)[C@@H](C)O [Epitope P42]

>  <experimental.endpoint>
inhibition at 5 µM

>  <quantity.unit>
%

>  <measured.result>
4.5

$$$$

---

We begin with a simple list: items and their reported inhibition at 5 µM.
# tested.on: HLA-A0207 (Homo sapiens, UniProt P04439, D140Y/D185E/D98H/E176V/E277Q/G131W/G231S/I119V/I121R/I166T/I218V/L300P/L318F/N151K/N90K/P208A/P217A/Q86G/Q94H/R138H/R169H/T345S/Y123C)
# Construct: expressed in transfected cells; host or cells: HMy2.CIR
# test.method.notes: cell-based
# Format: binding
# condition.parameters: HLA-A0207 HMy2.CIR cells; competitor peptide 5μM; 24 hours; flow cytometry; read-out: 5μM Inhibition (%)
Residues, ends and D or L forms follow the SMILES beside them.

>  <compound>
CSCC[C@H](NC(=O)[C@@H](N)CCSC)C(=O)N[C@@H](Cc1c[nH]c2ccccc12)C(=O)N[C@@H](Cc1ccc(O)cc1)C(=O)N[C@@H](Cc1c[nH]c2ccccc12)C(=O)NCC(=O)N1CCC[C@H]1C(=O)N[C@@H](CO)C(=O)N[C@@H](CC(C)C)C(=O)N[C@@H](Cc1ccc(O)cc1)C(=O)O [Epitope P108]

>  <inhibition at 5 µM / %>
38

$$$$
>  <compound>
CC[C@H](C)[C@H](NC(=O)[C@@H](NC(=O)[C@H](CO)NC(=O)[C@H](CC(C)C)NC(=O)[C@H](Cc1c[nH]c2ccccc12)NC(=O)[C@@H](N)C(C)C)C(C)C)C(=O)N[C@@H](Cc1c[nH]c2ccccc12)C(=O)N[C@@H](CCSC)C(=O)N[C@@H](CCSC)C(=O)N[C@@H](Cc1c[nH]c2ccccc12)C(=O)O [Epitope P51] (H-VWLSVIWMMW-OH; N-terminus and C-terminus assumed)

>  <inhibition at 5 µM / %>
43

$$$$
>  <compound>
CC[C@H](C)[C@H](NC(=O)[C@H](Cc1c[nH]cn1)NC(=O)[C@H](Cc1ccccc1)NC(=O)[C@@H](N)Cc1c[nH]c2ccccc12)C(=O)N[C@@H](CO)C(=O)N[C@@H](CS)C(=O)N[C@@H](CC(C)C)C(=O)N[C@H](C(=O)N[C@@H](Cc1ccccc1)C(=O)O)[C@@H](C)O [Epitope P52]

>  <inhibition at 5 µM / %>
36

$$$$
>  <compound>
CC(C)C[C@H](NC(=O)[C@@H](NC(=O)[C@@H](N)CO)[C@@H](C)O)C(=O)N1CCC[C@H]1C(=O)N[C@@H](CCC(=O)O)C(=O)N[C@H](C(=O)N[C@H](C(=O)N[C@H](C(=O)N[C@H](C(=O)N[C@@H](CCCNC(=N)N)C(=O)O)C(C)C)C(C)C)[C@@H](C)O)[C@@H](C)O [Epitope P42]

>  <inhibition at 5 µM / %>
33

$$$$
>  <compound>
CSCC[C@H](NC(=O)[C@H](CC(N)=O)NC(=O)[C@@H](NC(=O)[C@H](CC(N)=O)NC(=O)[C@@H](NC(=O)[C@H](Cc1ccc(O)cc1)NC(=O)[C@@H](N)CO)C(C)C)C(C)C)C(=O)NCC(=O)N[C@@H](CC(C)C)C(=O)O [Epitope P53] (H-SYVNVNMGL-OH; N-terminus and C-terminus assumed)

>  <inhibition at 5 µM / %>
36

$$$$
>  <compound>
CC(C)C[C@H](N)C(=O)N[C@@H](Cc1ccc(O)cc1)C(=O)N[C@@H](CO)C(=O)N[C@@H](CO)C(=O)N[C@H](C(=O)N[C@H](C(=O)N1CCC[C@H]1C(=O)N[C@H](C(=O)N[C@@H](Cc1ccccc1)C(=O)O)C(C)C)C(C)C)[C@@H](C)O [Epitope P56] (H-LYSSTVPVF-OH; N-terminus and C-terminus assumed)

>  <inhibition at 5 µM / %>
32

$$$$
